biological target: intestinal microsomal heme oxygenase; assay: Competitive inhibition of intestinal microsomal heme oxygenase in vitro; settings: intestinal microsomes
observable: Ki
Provide a numeric answer, followed by its unit.

Ki in this record for C=Cc1c2[n-]c(c1C)/C=c1\[n-]/c(c(C)c1C=C)=C\c1[n-]c(c(CCC(=O)O)c1C)/C=c1\[n-]c(c(C)c1CCC(=O)O)=C2.[Sn+4] [SnPP, tin protoporphyrin] : 17 nM
